The reported numbers originate from ChEMBL document CHEMBL4325889.

- System: MOLT-4
- EXPERIMENT: Growth inhibition of human MOLT4 cells at 10 uM after 48 hrs by SRB assay relative to control
- Assay type: functional
- DETAILS: MOLT-4, 48 h, read-out: GI
Each entry gets not fulfilled if its inhibition of growth at 10 µM stays under 20%, and fulfilled if its inhibition of growth at 10 µM is 20% or above.

Some solved entries appear below for comparison.
INSERT INTO results (sample_smiles, group) VALUES
  ('COc1cc2oc(-c3cccc(NC(=O)c4ccccc4)c3)cc(=O)c2c(OC)c1OC', 'fulfilled'),
  ('Cc1ccc(NC(=O)c2ccc(CN3CCN(C)CC3)cc2)cc1Nc1nccc(-c2cccnc2)n1', 'not fulfilled'),
  ('COc1cc2oc(-c3cccc(NC(=O)c4ccc5c(c4)OCO5)c3)cc(=O)c2c(O)c1OC', 'not fulfilled'),
  ('COc1cc2oc(-c3cccc(C(=O)Nc4ccc5c(c4)OCO5)c3)cc(=O)c2c(O)c1OC', 'not fulfilled');

For this compound, is measured inhibition of growth at 10 µM 20% or higher? "COc1ccccc1NC(=O)c1cccc(-c2cc(=O)c3c(O)c(OC)c(OC)cc3o2)c1"
fulfilled

* * *

- Tested on: KM12
- EXPERIMENT: Growth inhibition of human KM12 cells at 10 uM after 48 hrs by SRB assay relative to control
- Type: functional
- DETAILS: KM12, 48 h, read-out: GI
Each entry gets 0.0 if its inhibition of growth at 10 µM stays under 40%, and 1.0 if its inhibition of growth at 10 µM is 40% or above.

Some solved entries appear below for comparison.
INSERT INTO assay_data (compound, group) VALUES
  ('COc1cc(NC(=O)c2cccc(-c3cc(=O)c4c(OC)c(OC)c(OC)cc4o3)c2)cc(OC)c1OC', 1.0),
  ('COc1cccc(C(=O)Nc2cccc(-c3cc(=O)c4c(O)c(OC)c(OC)cc4o3)c2)c1', 1.0),
  ('COc1cccc(NC(=O)c2cccc(-c3cc(=O)c4c(O)c(OC)c(OC)cc4o3)c2)c1', 0.0),
  ('COc1ccc(C(=O)Nc2cccc(-c3cc(=O)c4c(OC)c(OC)c(OC)cc4o3)c2)cc1', 1.0),
  ('COc1cc2oc(-c3cccc(NC(=O)c4ccc5c(c4)OCO5)c3)cc(=O)c2c(O)c1OC', 0.0);

For this compound, is measured inhibition of growth at 10 µM 40% or higher? "COc1ccc(NC(=O)c2cccc(-c3cc(=O)c4c(O)c(OC)c(OC)cc4o3)c2)cc1"
0.0

For this compound, is measured inhibition of growth at 10 µM 40% or higher? "COc1ccc(NC(=O)c2cccc(-c3cc(=O)c4c(OC)c(OC)c(OC)cc4o3)c2)cc1"
1.0

For this compound, is measured inhibition of growth at 10 µM 40% or higher? Cc1ccc(NC(=O)c2ccc(CN3CCN(C)CC3)cc2)cc1Nc1nccc(-c2cccnc2)n1 [IMATINIB]
0.0

For this compound, is measured inhibition of growth at 10 µM 40% or higher? "COc1ccccc1NC(=O)c1cccc(-c2cc(=O)c3c(O)c(OC)c(OC)cc3o2)c1"
0.0

* * *

- Test system: HCT-15
- EXPERIMENT: Growth inhibition of human HCT15 cells at 10 uM after 48 hrs by SRB assay relative to control
- Type: functional
- DETAILS: HCT-15, 48 h, read-out: GI
MEASURED_ATTRIBUTE: inhibition of growth at 10 µM (%)
Numbers only, in %.

# example entries with known answers
INSERT INTO results (compound, measured_attribute, numeric_readout) VALUES
  ('COc1ccc(C(=O)Nc2cccc(-c3cc(=O)c4c(OC)c(OC)c(OC)cc4o3)c2)cc1', 'inhibition of growth at 10 µM', 54.8),
  ('COc1cc2oc(-c3cccc(NC(=O)c4ccccc4)c3)cc(=O)c2c(OC)c1OC', 'inhibition of growth at 10 µM', 34.8),
  ('COc1ccc(NC(=O)c2cccc(-c3cc(=O)c4c(O)c(OC)c(OC)cc4o3)c2)cc1', 'inhibition of growth at 10 µM', -7.36),
  ('Cc1ccc(NC(=O)c2ccc(CN3CCN(C)CC3)cc2)cc1Nc1nccc(-c2cccnc2)n1 [IMATINIB]', 'inhibition of growth at 10 µM', 11.5),
  ('COc1cc(NC(=O)c2cccc(-c3cc(=O)c4c(O)c(OC)c(OC)cc4o3)c2)cc(OC)c1OC', 'inhibition of growth at 10 µM', 40.1),
  ('COc1ccccc1C(=O)Nc1cccc(-c2cc(=O)c3c(OC)c(OC)c(OC)cc3o2)c1', 'inhibition of growth at 10 µM', 58.5),
  ('COc1ccc(C(=O)Nc2cccc(-c3cc(=O)c4c(O)c(OC)c(OC)cc4o3)c2)cc1', 'inhibition of growth at 10 µM', 7.47),
  ('COc1cccc(NC(=O)c2cccc(-c3cc(=O)c4c(O)c(OC)c(OC)cc4o3)c2)c1', 'inhibition of growth at 10 µM', 25.7);

Provide each entry's inhibition of growth at 10 µM from the list below.
1. COc1ccccc1NC(=O)c1cccc(-c2cc(=O)c3c(OC)c(OC)c(OC)cc3o2)c1
2. COc1cc2oc(-c3cccc(C(=O)Nc4ccccc4)c3)cc(=O)c2c(O)c1OC
3. COc1cc2oc(-c3cccc(C(=O)Nc4ccc5c(c4)OCO5)c3)cc(=O)c2c(OC)c1OC
4. COc1cc2oc(-c3cccc(NC(=O)c4ccc5c(c4)OCO5)c3)cc(=O)c2c(O)c1OC

[48.4, 7.23, 28.2, 0.04]

Entry "COc1ccccc1NC(=O)c1cccc(-c2cc(=O)c3c(O)c(OC)c(OC)cc3o2)c1" : reported inhibition of growth at 10 µM = ?
13
